- System: OVCAR-3
- Run Description: Cytotoxicity against human OVCAR-3 cells assessed as reduction in cell viability measured after 72 hrs by MTS assay
- Format: functional, cell-based
- Conditions: OVCAR-3, 72 h
Reported Endpoint: IC50

CCCCCC[C@H](O)CCC[C@H](O)[C@H]1CC[C@H]([C@H]2CC[C@H]([C@H](O)CCCCCCCCCCCCC3=C[C@H](C)OC3=O)O2)O1 [SQUAMOCIN] | 4.5 µM
CCCCCCCCCC[C@@H](O)[C@H]1CC[C@H]([C@H]2CC[C@H]([C@H](O)CCCCCCCCC[C@@H](O)CCC3=C[C@H](C)OC3=O)O2)O1 | 3.5 µM
CCCCCCCCCC[C@@H](O)[C@H]1CC[C@H]([C@H]2CC[C@H]([C@H](O)CCCCCCCCCCCCC3=C[C@H](C)OC3=O)O2)O1 [ISODESAACETYLUVARICIN] | > 10 µM
CCCCCC[C@H](O)CCC[C@H](O)[C@H]1CC[C@H]([C@H]2CC[C@H]([C@H](O)CCCCCCCCCCCCCCC3=C[C@H](C)OC3=O)O2)O1 | 4.4 µM
CCCCCCCCCC[C@@H](O)[C@H]1CC[C@H]([C@H]2CC[C@H]([C@H](O)CCCCCCCCC[C@H](O)CCC3=C[C@H](C)OC3=O)O2)O1 [UVARIGRANDIN A] | 4.6 µM
CCCCCCCCCC[C@H](O)[C@H]1CC[C@H]([C@H]2CC[C@H]([C@H](O)CCCCCCCC[C@H](O)[C@H](O)CCC3=C[C@H](C)OC3=O)O2)O1 | > 10 µM
CCCCCCCCCC[C@@H](O)[C@H]1CC[C@H]([C@H]2CC[C@H]([C@H](O)CCCCCCCC[C@H](O)[C@H](O)CCC3=C[C@H](C)OC3=O)O2)O1 | 3.7 µM
CC(=O)O[C@H]1C(=O)[C@@]2(C)[C@H]([C@H](OC(=O)c3ccccc3)[C@]3(O)C[C@H](OC(=O)[C@H](O)[C@@H](NC(=O)c4ccccc4)c4ccccc4)C(C)=C1C3(C)C)[C@]1(OC(C)=O)CO[C@@H]1C[C@@H]2O [PACLITAXEL] | 0.0056 µM
CCCCCCCCCC[C@H](O)[C@H]1CC[C@H]([C@H]2CC[C@H]([C@H](O)CCCCCCCCCCCCC3=C[C@H](C)OC3=O)O2)O1 [BULLANIN] | > 10 µM
CCCCCC[C@H](O)CCC[C@H](O)[C@H]1CC[C@H]([C@H]2CC[C@H]([C@H](O)CCCCCCCCC[C@@H](O)CCC3=C[C@H](C)OC3=O)O2)O1 | 4.5 µM

* * *

- Test system: HCT-116
- Run Description: Cytotoxicity against human HCT-116 cells assessed as reduction in cell viability measured after 72 hrs by MTT assay
- Assay type: functional, cell-based
- Conditions: HCT-116, 72 h
pIC50: −log10 of the molar value. Where a name gives a salt, the structure may show the parent alone.
Reported Endpoint: pIC50

CCCCCC[C@H](O)CCC[C@H](O)[C@H]1CC[C@H]([C@H]2CC[C@H]([C@H](O)CCCCCCCCCCCCCCC3=C[C@H](C)OC3=O)O2)O1 | 5.92
CCCCCCCCCC[C@@H](O)[C@H]1CC[C@H]([C@H]2CC[C@H]([C@H](O)CCCCCCCC[C@H](O)[C@H](O)CCC3=C[C@H](C)OC3=O)O2)O1 | 5.57
CC[C@]1(O)C[C@@H]2CN(CCc3c([nH]c4ccccc34)[C@@](C(=O)OC)(c3cc4c(cc3OC)N(C)[C@H]3[C@@](O)(C(=O)OC)[C@H](OC(C)=O)[C@]5(CC)C=CCN6CC[C@]43[C@@H]65)C2)C1 [VINBLASTINE SULFATE] | 9.00
CCCCCC[C@H](O)CCC[C@H](O)[C@H]1CC[C@H]([C@H]2CC[C@H]([C@H](O)CCCCCCCCC[C@@H](O)CCC3=C[C@H](C)OC3=O)O2)O1 | 5.74
CCCCCC[C@H](O)CCC[C@H](O)[C@H]1CC[C@H]([C@H]2CC[C@H]([C@H](O)CCCCCCCCCCCCC3=C[C@H](C)OC3=O)O2)O1 | 5.92
CCCCCCCCCC[C@H](O)[C@H]1CC[C@H]([C@H]2CC[C@H]([C@H](O)CCCCCCCC[C@H](O)[C@H](O)CCC3=C[C@H](C)OC3=O)O2)O1 | 4.82
CCCCCCCCCC[C@@H](O)[C@H]1CC[C@H]([C@H]2CC[C@H]([C@H](O)CCCCCCCCCCCCC3=C[C@H](C)OC3=O)O2)O1 | 5.55
CCCCCCCCCC[C@@H](O)[C@H]1CC[C@H]([C@H]2CC[C@H]([C@H](O)CCCCCCCCC[C@@H](O)CCC3=C[C@H](C)OC3=O)O2)O1 | 5.04
CCCCCCCCCC[C@H](O)[C@H]1CC[C@H]([C@H]2CC[C@H]([C@H](O)CCCCCCCCCCCCC3=C[C@H](C)OC3=O)O2)O1 | 4.54
CCCCCCCCCC[C@@H](O)[C@H]1CC[C@H]([C@H]2CC[C@H]([C@H](O)CCCCCCCCC[C@H](O)CCC3=C[C@H](C)OC3=O)O2)O1 | 5.26
CCCCCCCCCC[C@H](O)[C@H]1CC[C@H]([C@H]2CC[C@H]([C@H](O)CCCCCCCC[C@H](O)CCCC3=C[C@H](C)OC3=O)O2)O1 | 5.00
COc1cc([C@@H]2c3cc4c(cc3[C@@H](O[C@@H]3O[C@@H]5CO[C@@H](C)O[C@H]5[C@H](O)[C@H]3O)[C@H]3COC(=O)[C@H]23)OCO4)cc(OC)c1O [ETOPOSIDE] | 5.74
